meta.source: ChEMBL document CHEMBL1208738

target: Melanocortin receptor 4 (Homo sapiens, UniProt P32245); experiment: Agonist activity at human MC4 receptor expressed in CHO cells assessed as increase of alpha-MSH-induced cAMP accumulation; assay type: functional, cell-based
Sequence (P32245 whole entry): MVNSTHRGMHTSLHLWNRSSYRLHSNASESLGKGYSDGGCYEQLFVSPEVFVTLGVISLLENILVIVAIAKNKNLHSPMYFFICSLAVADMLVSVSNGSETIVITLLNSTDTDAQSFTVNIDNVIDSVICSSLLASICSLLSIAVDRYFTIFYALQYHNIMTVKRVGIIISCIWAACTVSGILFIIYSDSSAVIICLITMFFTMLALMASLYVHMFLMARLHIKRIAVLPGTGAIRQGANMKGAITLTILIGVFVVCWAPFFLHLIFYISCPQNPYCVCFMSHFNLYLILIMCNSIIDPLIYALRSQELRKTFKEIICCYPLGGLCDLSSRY
reported metric: EC50 (nM)
Answers are plain numbers, in nM.

Example entries and their recorded answers appear below.
Reported EC50 for CC(=O)N(CC(N1CCN(C(=O)[C@@H]2CN(C(C)(C)C)C[C@H]2c2ccc(F)cc2F)CC1)C(C)(C)C)C(C)C (single isomer, unassigned; diastereomer 2) : what is it?
180

Now consider CC(C)NCC(C1CCCCC1)N1CCN(C(=O)[C@@H]2CN(C(C)(C)C)C[C@H]2c2ccc(F)cc2F)CC1 (stereo partly specified) and answer again.
240

Now consider CC(C)N(CC(N1CCN(C(=O)[C@@H]2CN(C(C)(C)C)C[C@H]2c2ccc(F)cc2F)CC1)C(C)(C)C)S(C)(=O)=O (stereo in doubt; 27A) and answer again.
19

Now consider CC(C)CN(CC(C)C)CC(C1CCCCC1)N1CCN(C(=O)[C@@H]2CN(C(C)(C)C)C[C@H]2c2ccc(F)cc2F)CC1 (stereo partly specified) and answer again.
6700

Now consider CC(=O)N(CC(CC(C)C)N1CCN(C(=O)[C@@H]2CN(C(C)(C)C)C[C@H]2c2ccc(F)cc2F)CC1)C(C)C (single isomer, unassigned; diastereomer 1) and answer again.
29

Hi! Can you tell me EC50 for each of these compounds?
1. CC(C)N(CC(C1CCCCC1)N1CCN(C(=O)[C@@H]2CN(C(C)(C)C)C[C@H]2c2ccc(F)cc2F)CC1)C(=O)c1cccnn1 (single isomer, unassigned; diastereomer 2)
2. CC(C)N(CC(C1CCCCC1)N1CCN(C(=O)[C@@H]2CN(C(C)(C)C)C[C@H]2c2ccc(F)cc2F)CC1)C(=O)c1ncccn1 (stereo in doubt; 22B)
3. CC(C)N(CC(C1CCCCC1)N1CCN(C(=O)[C@@H]2CN(C(C)(C)C)C[C@H]2c2ccc(F)cc2F)CC1)C(=O)c1cccnn1 (single isomer, unassigned; diastereomer 1)
4. CC(C)CC(CN(C(C)C)S(C)(=O)=O)N1CCN(C(=O)[C@@H]2CN(C(C)(C)C)C[C@H]2c2ccc(F)cc2F)CC1 (single isomer, unassigned; diastereomer 2)

1. 9.1
2. 15
3. 5.4
4. 19

Hi! Can you tell me EC50 for each of these compounds?
1. CC(C)CC(CN(C(C)C)S(C)(=O)=O)N1CCN(C(=O)[C@@H]2CN(C(C)(C)C)C[C@H]2c2ccc(F)cc2F)CC1 (single isomer, unassigned; diastereomer 1)
2. CC(C)N(CC(C1CCCCC1)N1CCN(C(=O)[C@@H]2CN(C(C)(C)C)C[C@H]2c2ccc(F)cc2F)CC1)C(=O)c1ncccn1 (single isomer, unassigned; diastereomer 1)

47
10
